- TEST METHOD NOTES: in vivo
- EXPERIMENTAL CONDITIONS: female, ICR, mouse, po, 1.25 mg/kg
READOUT LABEL: AUC(0-t)
Write your answer as a measured quantity: the number, then the unit.

Per the records, this compound ( O=C1CCc2c(OC[C@]3(O)CCN(c4c(F)cc(Cl)cc4F)C[C@H]3O)ccc(F)c2N1 [OPC-167832] ) has AUC(0-t) equal to 543 ng·h/mL

---

Item-by-item account of MIC
- Tested on: M. tuberculosis ATCC 27294 (H37Rv)
- TEST METHOD NOTES: MIC by agar proportion method, standard strain
- Format: cell-based
- EXPERIMENTAL CONDITIONS: Mycobacterium tuberculosis; ATCC 27294 (H37Rv); agar proportion method; […]; read-out: MIC
Just the number in µg/mL, nothing appended.

sample_smiles=COc1c(N2C[C@@H]3CCCN[C@@H]3C2)c(F)cc2c(=O)c(C(=O)O)cn(C3CC3)c12 measured_on="M. tuberculosis ATCC 27294 (H37Rv)" value_observed=0.5
sample_smiles=COc1nc2ccc(Br)cc2cc1[C@@H](c1ccccc1)[C@@](O)(CCN(C)C)c1cccc2ccccc12 measured_on="M. tuberculosis ATCC 27294 (H37Rv)" value_observed=0.063

Per the records, this molecule ( O=C1CCc2c(OC[C@]3(O)CCN(c4c(F)cc(Cl)cc4F)C[C@H]3O)ccc(F)c2N1 ) has MIC equal to 0.0005

Per the records, this molecule ( C[C@H]1COc2c(N3CCN(C)CC3)c(F)cc3c(=O)c(C(=O)O)cn1c23 ) has MIC equal to 0.5

Per the records, this molecule ( C[C@]1(COc2ccc(N3CCC(Oc4ccc(OC(F)(F)F)cc4)CC3)cc2)Cn2cc([N+](=O)[O-])nc2O1 ) has MIC equal to 0.004

---

- TEST METHOD NOTES: in vivo
- EXPERIMENTAL CONDITIONS: female, ICR, mouse, po, 0.625 mg/kg, t1/2, plasma, 0.625 mg/kg oral, calculated 2 - 8h
READOUT LABEL: half-life (h)
Just the number in h, nothing appended.

Per the records, this compound ( O=C1CCc2c(OC[C@]3(O)CCN(c4c(F)cc(Cl)cc4F)C[C@H]3O)ccc(F)c2N1 ) has half-life equal to 1.6

---

- TEST METHOD NOTES: in vivo
- EXPERIMENTAL CONDITIONS: female, ICR, mouse, po
READOUT LABEL: Kp

Per the records, this compound ( O=C1CCc2c(OC[C@]3(O)CCN(c4c(F)cc(Cl)cc4F)C[C@H]3O)ccc(F)c2N1 ) has Kp equal to ~2

---

- TEST METHOD NOTES: in vivo
- EXPERIMENTAL CONDITIONS: female, ICR, mouse, po
READOUT LABEL: Tmax

Per the records, this compound ( O=C1CCc2c(OC[C@]3(O)CCN(c4c(F)cc(Cl)cc4F)C[C@H]3O)ccc(F)c2N1 ) has Tmax equal to 30 to 60 min

---

- Tested on: M. africanum ATCC 25420
- TEST METHOD NOTES: MIC by agar proportion method, standard strain
- Format: cell-based
- EXPERIMENTAL CONDITIONS: ATCC25420; M. africanum ATCC 25420; agar proportion method; read-out: MIC
READOUT LABEL: MIC (µg/mL)
Just the number in µg/mL, nothing appended.

Look over these answered cases.
compound="COc1nc2ccc(Br)cc2cc1[C@@H](c1ccccc1)[C@@](O)(CCN(C)C)c1cccc2ccccc12 [BDQ, bedaquiline]" value_observed=0.25
compound="C[C@]1(COc2ccc(N3CCC(Oc4ccc(OC(F)(F)F)cc4)CC3)cc2)Cn2cc([N+](=O)[O-])nc2O1 [DMD, delamanid]" value_observed=0.001

Per the records, this compound ( COc1c(N2C[C@@H]3CCCN[C@@H]3C2)c(F)cc2c(=O)c(C(=O)O)cn(C3CC3)c12 [MXF, moxifloxacin] ) has MIC equal to 0.25

Per the records, this compound ( C[C@H]1COc2c(N3CCN(C)CC3)c(F)cc3c(=O)c(C(=O)O)cn1c23 [LVX, levofloxacin] ) has MIC equal to 0.25

Per the records, this compound ( O=C1CCc2c(OC[C@]3(O)CCN(c4c(F)cc(Cl)cc4F)C[C@H]3O)ccc(F)c2N1 [OPC-167832] ) has MIC equal to 0.002
